Tested on: Alopecurus aequalis
Experiment Summary: Dry field farming herbicidal composition test, plant mortality
Format: in vivo
Test Parameters: 2 g/ha; in % (unit assumed)
Experimental Endpoint: Alopecurus aequalis mortality, measured value
Numbers only.

// worked examples, Alopecurus aequalis mortality, measured value included
{"Compound": "Cc1nn(-c2cc(CC(Cl)C(=O)O)c(Cl)cc2F)c(=O)n1C(F)F (stereo not shown)", "Target Entity": "Alopecurus aequalis", "Recorded Number": 0}
{"Compound": "COC(=O)CCNC(=O)C(C)Sc1cc(-n2c(=O)cc(C(F)(F)F)n(C)c2=O)c(F)cc1Cl (stereo not shown)", "Target Entity": "Alopecurus aequalis", "Recorded Number": 0}

I need Alopecurus aequalis mortality, measured value for every entry listed below, if you could help.
1. COc1nc(C)nc(=NC(=O)NS(=O)(=O)c2ccccc2C(=O)O)[nH]1
2. COC(=O)c1ccc(CNS(C)(=O)=O)cc1S(=O)(=O)NC(=O)Nc1nc(OC)cc(OC)n1

Result ::
1: 0; 2: 15

---

System: Xanthium spinosum
Experiment Summary: whole plant or invertebrate
Test Parameters: read-out: Data (measured value) Xanthium spinosum, 25 g/ha
Assign pest or weed control at 25 g/ha to each entry below.
Answers are plain numbers, in %.

{"Compound": "CCc1cnc(C2=NC(C)(C(C)C)C(=O)N2)c(C(=O)O)c1 (centres unmarked)", "Target Entity": "Xanthium spinosum", "Reading Unit": "%", "Recorded Number": 9}
{"Compound": "CCSC(C)CC1CC(=O)C(/C(CC)=N/OC/C=C/Cl)=C(O)C1 (centres unmarked)", "Target Entity": "Xanthium spinosum", "Reading Unit": "%", "Recorded Number": 0}
{"Compound": "CCc1cc(C)cc(CC)c1-c1c(OC(=O)C(C)(C)C)n2n(c1=O)CCOCC2", "Target Entity": "Xanthium spinosum", "Reading Unit": "%", "Recorded Number": 0}

I need pest or weed control at 25 g/ha for every entry listed below, if you could help.
1. Nc1c(Cl)c(Cl)nc(C(=O)O)c1Cl
2. CCO/N=C(\CC)C1=C(O)CC(c2c(C)cc(C)cc2C)CC1=O (centres unmarked)

Result ::
9
0

---

Test system: Abutilon theophrasti
Experiment Summary: whole plant or invertebrate
Test Parameters: read-out: Data (measured value) Abutilon theophrasti, 50 g/ha
Experimental Endpoint: pest or weed control at 50 g/ha (%)
Answers are plain numbers, in %.

// worked examples, pest or weed control at 50 g/ha included
{"Molecule": "Nc1c(Cl)c(F)nc(OCC(=O)O)c1Cl", "Reading Unit": "%", "Recorded Number": 9}
{"Molecule": "CCO/N=C(\\CC)C1=C(O)CC(c2c(C)cc(C)cc2C)CC1=O (centres unmarked)", "Reading Unit": "%", "Recorded Number": 0}
{"Molecule": "CCSC(C)CC1CC(=O)C(/C(CC)=N/OC/C=C/Cl)=C(O)C1 (centres unmarked)", "Reading Unit": "%", "Recorded Number": 0}

I need pest or weed control at 50 g/ha for every entry listed below, if you could help.
1. Nc1c(Cl)c(Cl)nc(C(=O)O)c1Cl
2. CCc1cnc(C2=NC(C)(C(C)C)C(=O)N2)c(C(=O)O)c1 (centres unmarked)

Result ::
28
24

---

Assign Digitaria sanguinalis mortality, measured value to each entry below.
Tested on: Digitaria sanguinalis
Test Parameters: 50 g/ha; 20 days after treatment
Form entry: enter the amount, then its unit.

// worked examples, Digitaria sanguinalis mortality, measured value included
{"Compound": "CC(Oc1ccc(Oc2ncc(C(F)(F)F)cc2Cl)cc1)C(=O)O (stereo not shown) [Haloxyfop, reference compound]", "Result": "57%"}
{"Compound": "C[C@@H](Oc1ccc(Oc2nc3ccc(Cl)cc3o2)cc1)C(=O)N(C)c1ccccc1F [Metamifop, reference compound]", "Result": "23%"}
{"Compound": "CC(Oc1ccc(Oc2ccc(C(F)(F)F)cn2)cc1)C(=O)O (stereo not shown) [Fluazifop, reference compound]", "Result": "9%"}

Query :: // Digitaria sanguinalis mortality, measured value lookup, key: CC(Oc1ccc(Oc2nc3ccc(Cl)cc3o2)cc1)C(=O)O (stereo not shown) [Fenoxaprop, reference compound]
Result :: 32%
